test system: M14; assay: NCI 60 panel growth inhibition (SRB), melanoma; format: cell-based, human; conditions: M14, 10 μM
Measured GI% of individual entries
Field format: number, assumed %, no unit text.

Incoming: Record request: GI% value, item "COc1ccc(-c2nc3ccccc3s2)cc1OCC(=O)NN=C1C(=O)Nc2ccc(Cl)cc21"
Outgoing: 23.59

Incoming: Record request: GI% value, item "COc1ccc(-c2nc3ccccc3s2)cc1OCC(=O)NN=C1C(=O)Nc2ccc(Br)cc21"
Outgoing: 9.47

Incoming: Record request: GI% value, item "COc1ccc2c(c1)C(=NNC(=O)COc1cc(-c3nc4ccccc4s3)ccc1OC)C(=O)N2"
Outgoing: 39.13

* * *

tested on: NCI-H460; assay: NCI 60 panel growth inhibition (SRB), non-small cell lung cancer; format: cell-based, human; details: NCI-H460, 10 μM
quantity: GI%

Some solved cases for reference:
Incoming: Record request: GI% value, item "COc1ccc(-c2nc3ccccc3s2)cc1OCC(=O)NN=C1C(=O)Nc2ccc(Br)cc21"
Outgoing: – (GI% < 5%)

Incoming: Record request: GI% value, item "COc1ccc(-c2nc3ccccc3s2)cc1OCC(=O)NN=C1C(=O)Nc2ccc(Cl)cc21"
Outgoing: 44.39%

Incoming: Record request: GI% value, item "COc1ccc2c(c1)C(=NNC(=O)COc1c(OC)cccc1-c1nc3ccccc3s1)C(=O)N2"
Outgoing: – (GI% < 5%)

Incoming: Record request: GI% value, item CNC(=O)c1nn(C)c2c1C(C)(C)Cc1cnc(Nc3ccc(N4CCN(C)CC4)cc3)nc1-2 [Milciclib, reference compound]
Outgoing: 92.50%

Incoming: Record request: GI% value, item "COc1cccc(-c2nc3ccccc3s2)c1OCC(=O)NN=C1C(=O)Nc2ccc(Br)cc21"
Outgoing: 5.26%

More entries:
Incoming: Record request: GI% value, item "COc1ccc(-c2nc3ccccc3s2)cc1OCC(=O)NN=C1C(=O)Nc2ccc([N+](=O)[O-])cc21"
Outgoing: – (GI% < 5%)

Incoming: Record request: GI% value, item "COc1cccc(-c2nc3ccccc3s2)c1OCC(=O)NN=C1C(=O)Nc2ccc([N+](=O)[O-])cc21"
Outgoing: – (GI% < 5%)

Incoming: Record request: GI% value, item "O=C(COc1ccccc1-c1nc2ccccc2s1)NN=C1C(=O)Nc2ccc(Br)cc21"
Outgoing: 18.32%

Incoming: Record request: GI% value, item "COc1ccc(-c2nc3ccccc3s2)cc1OCC(=O)NN=C1C(=O)Nc2ccccc21"
Outgoing: 17.38%

Incoming: Record request: GI% value, item "COc1cccc(-c2nc3ccccc3s2)c1OCC(=O)NN=C1C(=O)Nc2ccccc21"
Outgoing: – (GI% < 5%)

Incoming: Record request: GI% value, item "O=C(COc1ccccc1-c1nc2ccccc2s1)NN=C1C(=O)Nc2ccccc21"
Outgoing: – (GI% < 5%)

Incoming: Record request: GI% value, item "COc1cccc(-c2nc3ccccc3s2)c1OCC(=O)NN=C1C(=O)Nc2ccc(Cl)cc21"
Outgoing: 8.94%

Incoming: Record request: GI% value, item "COc1cccc(-c2nc3ccccc3s2)c1OCC(=O)NN=C1C(=O)Nc2ccc(C)cc21"
Outgoing: – (GI% < 5%)

Incoming: Record request: GI% value, item "Cc1ccc2c(c1)C(=NNC(=O)COc1ccccc1-c1nc3ccccc3s1)C(=O)N2"
Outgoing: 34.24%

Incoming: Record request: GI% value, item "COc1ccc2c(c1)C(=NNC(=O)COc1cc(-c3nc4ccccc4s3)ccc1OC)C(=O)N2"
Outgoing: 106.89%

Incoming: Record request: GI% value, item "COc1ccc2c(c1)C(=NNC(=O)COc1ccccc1-c1nc3ccccc3s1)C(=O)N2"
Outgoing: 6.01%

Incoming: Record request: GI% value, item "COc1ccc(-c2nc3ccccc3s2)cc1OCC(=O)NN=C1C(=O)Nc2ccc(C)cc21"
Outgoing: – (GI% < 5%)

Incoming: Record request: GI% value, item "O=C(COc1ccccc1-c1nc2ccccc2s1)NN=C1C(=O)Nc2ccc(Cl)cc21"
Outgoing: – (GI% < 5%)
